Attribution: the supplement of paper PMC7125110

B1: glmS ribozyme (parent)
chain: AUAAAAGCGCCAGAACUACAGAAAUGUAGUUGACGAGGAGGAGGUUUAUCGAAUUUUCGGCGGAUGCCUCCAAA

# Variants of: B1
# method_summary: self-cleavage kobs at 10000 uM GlcN6P; higher = faster cleavage; RNA array
# measurement_conditions: with glucosamine-6-phosphate
Variants at the floor of the assay were thinned out.
Quick reference for self-cleavage kobs at 10000 uM GlcN6P among some variants

A12U A64G; 0.052 s⁻¹
A15C U30A; 0.0299 s⁻¹
A52G A64G; 0.00136 s⁻¹
G59C G63C C70A; < 1e-05 s⁻¹
G29A G35U C50U; < 1e-05 s⁻¹

Consider now this further variant.
Entry G35C C61U , self-cleavage kobs at 10000 uM GlcN6P reported as < 1e-05 s⁻¹
